- assay_summary: qHTS assay for small molecule agonists of the antioxidant response element (ARE) signaling pathway - cell viability counter screen (AID 743203); note: nearly all actives have a fitted effect of over 55% in size
- experimental_conditions: ARE-bla HepG2 viability, CellTiter-Glo luminescence, 16 h; series mostly up to 73.3 µM
Inconclusive results are not listed. The source made the active and inactive calls. Calls come from the whole dose curve.
Thanks in advance; please answer with one of these: True for active, False for inactive

Prompt: Field: outcome | Entry: `c1ccc2c(c1)c1cccc3ccc4cccc2c4c31`
Completion: False

Prompt: Name the outcome recorded for `COc1cc([C@@H]2c3cc4c(cc3[C@H](O)[C@H]3COC(=O)[C@H]23)OCO4)cc(OC)c1OC` in the assay.
Completion: False

Prompt: State the result this test recorded for `CCOCCOCCO` .
Completion: False

Prompt: What is the recorded call for this compound in the test? `CC(CCC(=O)O)(c1ccc(O)cc1)c1ccc(O)cc1`
Completion: False

Prompt: Look up the recorded call for `Cc1ccc(C(=O)c2cc(O)c(O)c([N+](=O)[O-])c2)cc1` in this test.
Completion: True

Prompt: Kindly provide the recorded test outcome for the following compound: `c1ccncc1`
Completion: False

Prompt: What call does the record list for COc1ccc(OC)c(C(O)CNC(=O)CN)c1 (configuration not stated) ?
Completion: False

FYI, the data here is from PubChem BioAssay (Tox21).
